Target: T1, wild type pKal catalytic domain (human, UniProt P03952 391-638, limits assumed)
T1 construct: domain: catalytic domain; The expression in Pichia pastoris with a His tag and IMAC purification is told of the mutants; also called WT cat; Domain; not shown: His tag fusion
T1 sequence (P03952 391-638 limits assumed): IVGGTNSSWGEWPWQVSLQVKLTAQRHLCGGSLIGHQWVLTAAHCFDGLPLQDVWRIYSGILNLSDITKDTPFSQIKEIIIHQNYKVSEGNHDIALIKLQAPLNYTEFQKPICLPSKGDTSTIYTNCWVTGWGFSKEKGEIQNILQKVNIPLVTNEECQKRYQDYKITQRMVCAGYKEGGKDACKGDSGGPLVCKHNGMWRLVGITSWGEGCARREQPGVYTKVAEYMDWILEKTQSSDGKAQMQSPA
Test: Ki,app: enzyme inhibition, fluorescent substrate, 2 h pre-incubation at 30 C, tight-binding fit
Recorded Ki by entry
property: Ki (pM)

>>> resultvalue("X115-F02 (Fab, V domains shown, also called 559A-X115-F02; 559A-X0115-F02) VH: EVQLLESGGGLVQPGGSLRLSCAASGFTFSHYIMMWVRQAPGKGLEWVSGIYSSGGITVYADSVKGRFTISRDNSKNTLYLQMNSLRAEDTAVYYCAYRRIGVPRRDEFDIWGQGTMVTVSS VL: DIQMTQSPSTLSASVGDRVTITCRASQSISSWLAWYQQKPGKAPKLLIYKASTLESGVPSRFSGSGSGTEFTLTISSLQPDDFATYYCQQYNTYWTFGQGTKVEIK")
90
>>> resultvalue("X115-D01 (antibody, V domains shown, only variable domains given; also called 559A-X115-D01; 559A-X0115-D01) VH: EVQLLESGGGLVQPGGSLRLSCAASGFTFSIYSMHWVRQAPGKGLEWVSSIYPSRGMTWYADSVKGRFTISRDNSKNTLYLQMNSLRAEDTAVYYCAYRRTGIPRRDAFDIWGQGTMVTVSS VL: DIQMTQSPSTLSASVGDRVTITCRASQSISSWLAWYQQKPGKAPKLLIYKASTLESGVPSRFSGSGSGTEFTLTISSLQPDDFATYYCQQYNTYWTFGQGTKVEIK")
180
>>> resultvalue("DX-2922 (antibody, V domains shown, Germlined IgG produced in CHO cells; only the variable domains are printed; also called X101-A01; 559A-X0101-A01) VH: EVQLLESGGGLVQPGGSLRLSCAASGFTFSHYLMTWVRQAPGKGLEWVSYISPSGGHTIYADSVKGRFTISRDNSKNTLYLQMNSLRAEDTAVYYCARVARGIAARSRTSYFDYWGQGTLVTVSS VL: EIVLTQSPGTLSLSPGERATLSCRTSQFVNSNYLAWYQQKPGQAPRLLIYGASSRATGIPDRFSGSGSGTDFTLTISRLEPEDFAVYYCQQSSRTPWTFGQGTKVEIK")
220
>>> resultvalue("M145-D11 (Fab, V domains shown, also called 559A-M145-D11 (sFab); 559A-M0145-D11) VH: EVQLLESGGGLVQPGGSLRLSCAASGFTFSHYRMSWVRQAPGKGLEWVSSIYPSGGRTVYADSVKGRFTISRDNSKNTLYLQMNSLRAEDTAVYYCAKDKFEWRLLFRGIGNDAFDIWGQGTMVTVSS VL: QSVLTQPPSVSVSPGQTASITCSGDKLGDKYTSWYQQRPGQSPVLVIYQDIKRPSGIPERFSGSNSGNTATLTISGTQAMDEADYYCQAWDSPNARVFGSGTKVTVL")
160

Every entry's value here was drawn from patent US9266964.
